# testSystem: SdiA (Salmonella enterica subsp. enterica serovar Typhimurium, UniProt O66040)
# Sequence (O66040 entry or part of it): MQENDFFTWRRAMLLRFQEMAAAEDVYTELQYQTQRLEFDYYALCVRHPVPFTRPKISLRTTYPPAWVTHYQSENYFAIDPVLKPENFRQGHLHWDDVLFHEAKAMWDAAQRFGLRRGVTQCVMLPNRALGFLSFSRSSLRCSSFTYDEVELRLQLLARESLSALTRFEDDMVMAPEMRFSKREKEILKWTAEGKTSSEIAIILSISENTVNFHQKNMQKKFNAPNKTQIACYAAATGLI
# runDescription: Competition dose–response of OOHL (2) against antagonists in the S. Typhimurium SdiA reporter
# Assay type: cell-based
# settings: antagonist at 10 μM
quantityName: EC50 (nM)
Report only the number, with the unit nM understood.

Prompt: Quick one: EC50 of O=C(CCCCCCCCCN=C=S)CC(=O)N[C@H]1CCOC1=O [compound 11, reference compound] ?
Response: 1310

Prompt: Further, for CCOC(=O)CNC(=O)Cc1cccc(I)c1 [F45] ?
Response: 4.11

Prompt: // same read-out, input: CCCCCCCCCCCOc1ccc(C(=O)N[C@H]2CCOC2=O)cc1 [R8]
Response: 2.52
